Biological target: T1, human MAdCAM expressed on cells (human, UniProt Q13477 19-382)
T1 construct: whole, on cells; also called MADCAM1
T1 sequence (looked up): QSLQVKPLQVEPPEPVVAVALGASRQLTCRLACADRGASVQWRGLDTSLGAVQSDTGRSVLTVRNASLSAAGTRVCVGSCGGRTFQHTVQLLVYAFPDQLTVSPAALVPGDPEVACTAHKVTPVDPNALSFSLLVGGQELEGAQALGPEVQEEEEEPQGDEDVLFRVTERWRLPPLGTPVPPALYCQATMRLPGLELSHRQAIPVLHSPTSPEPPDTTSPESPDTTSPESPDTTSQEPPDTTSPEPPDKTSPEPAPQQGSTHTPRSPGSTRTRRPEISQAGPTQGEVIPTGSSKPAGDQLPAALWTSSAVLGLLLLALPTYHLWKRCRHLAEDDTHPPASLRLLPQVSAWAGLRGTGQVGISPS
Assay: cell binding
observable: binding result

// worked examples, binding result included
{"columns": ["binder", "binding result"],
 "data": [
  ["MAdCAM Antibody Table 2 Clone 1 (antibody, human IgG1, V domains shown) VH: EVQLLESGGGLVQPGGSLRLSCAASGFTFSSYGMHWVRQAPGKGLEWVAVISDDGSDKYYADSVKGRFTISRDNSKNTLYLQMNSLRAEDTAVYYCTTSKYYYYYGMDVWGQGTTVTVSS VL: DIQMTQSPSSLSASVGDRVTITCQASQDISKSLNWYQQKPGKAPKLLIYAASSLQSGVPSRFSGSGSGTDFTLTISSLQPEDFATYYCQQGYSTPLTFGGGTKVEIK", "binds"],
  ["MAdCAM Antibody Table 2 Clone 37 (antibody, human IgG1, V domains shown) VH: EVQLLESGGGLVQPGGSLRLSCAASGFTFSDYGMPWVRQAPGKGLEWVSAISGSGGSTYYADSVKGRFTISRDNSKNTLYLQMNSLRAEDTAVYYCARDGGWQPAAILDYWGQGTLVTVSS VL: DIQMTQSPSSLSASVGDRVTITCRASQGISNNLNWYQQKPGKAPKLLIYDASNLETGVPSRFSGSGSGTDFTLTISSLQPEDFATYYCQQSYSTPLTFGQGTKVEIK", "binds"],
  ["MAdCAM Antibody Table 2 Clone 41 (antibody, human IgG1, V domains shown) VH: QVQLVQSGAEVKKPGASVKVSCKASGYTFTSYYMHWVRQAPGQGLEWMGIINPSGGSTSYAQKFQGRVTMTRDTSTSTVYMELSSLRSEDTAVYYCARDTGYSYGRYYYYGMDVWGQGTLVTVSS VL: DIQMTQSPSSLSASVGDRVTITCRASQSIGRWLAWYQQKPGKAPKLLIYDASNLQSGVPSRFSGSGSGTDFTLTISSLQPEDFATYYCQQSYSIPITFGQGTKVEIK", "binds"],
  ["MAdCAM Antibody Table 2 Clone 23 (antibody, human IgG1, V domains shown) VH: EVQLLESGGGLVQPGGSLRLSCAASGFTFDDYAMHWVRQAPGKGLEWVSYIDTSSSHLYYADSVKGRFTISRDNSKNTLYLQMNSLRAEDTAVYYCARDEAAAGYYGMDVWGQGTTVTVSS VL: DIQMTQSPSSLSASVGDRVTITCQAGQDISNYLNWYQQKPGKAPKLLIYDASNLETGVPSRFSGSGSGTDFTLTISSLQPEDFATYYCQQTYSTPITFGQGTKLEIK", "binds"]
]}

Consider now this further binder.
Request: Param item = MAdCAM Antibody Table 2 Clone 38 (antibody, human IgG1, V domains shown) VH: QVQLVQSGAEVKKPGASVKVSCKASGYTFTDYFLHWVRQAPGQGLEWMGWMNPTSGNTGYAQKFQGRVTMTRDTSTSTVYMELSSLRSEDTAVYYCAREGEGSGFDYWGQGTLVTVSS VL: DIQMTQSPSSLSASVGDRVTITCRASQGINSWLAWYQQKPGKAPKLLIYDASNLETGVPSRFSGSGSGTDFTLTISSLQPEDFATYYCQQSYSTPLTFGGGTKVEIK ; retrieve measured binding result.
Result: binds
